These entries and their values trace back to the supplement of paper PMC12494721.

Consider the following compounds; for each one, report its fold change of Cadaverine concentration.
System: Klebsiella aerogenes DSM 30053
Run description: fold change of Cadaverine concentration vs plate DMSO controls (fold change (ratio)); higher = more amine produced, active = hit call of the paper (significant change in both replicates, either direction)
Condition info: incubation time: 27 h, anaerobic, 37 °C
Where a name gives a salt, the structure may show the parent alone.
Respond numerically, and do not add a unit to the figure.

// lookup fold change of Cadaverine concentration for CC(C)NC[C@@H](O)COc1ccc(CC(N)=O)cc1 [(R,+) Atenolol] (20 µM)
1.04

Look at this compound and give its reported fold change of Cadaverine concentration. CN(C)CCOC(=O)C(c1ccccc1)C1(O)CCCC1 (stereo unspecified) [Cyclopentolate hydrochloride] (20 µM)
0.99

Form field: reported fold change of Cadaverine concentration of CC1=C(C(=O)O)N2C(=O)[C@@H](NC(=O)[C@H](N)c3ccc(O)cc3)[C@H]2SC1 [Cefadroxil] (20 µM)
0.996

Recorded fold change of Cadaverine concentration for OCCN1CCN(CCCN2c3ccccc3Sc3ccc(Cl)cc32)CC1 [Perphenazine] (20 µM) , please?
0.999

I am curious: what fold change of Cadaverine concentration value has been reported for C[N+](C)(C)C[C@H](O)CC(=O)[O-] [Levocarnitine] (20 µM) ?
1.09

Recorded fold change of Cadaverine concentration of CSc1ccc2c(c1)N(CCC1CCCCN1C)c1ccccc1S2 (stereo unspecified) [Thioridazine hydrochloride] (20 µM) , please.
1.02

Look up fold change of Cadaverine concentration: CCCCC[C@H](O)/C=C/[C@H]1[C@H](O)CC(=O)[C@@H]1CCCCCCC(=O)O [Alprostadil] (20 µM)
0.997

Looking for the measured fold change of Cadaverine concentration of O=C1CCc2cc(OCCCCc3nnnn3C3CCCCC3)ccc2N1 [Cilostazol] (20 µM) , can you help?
0.995

Can you look up the measured fold change of Cadaverine concentration of Cn1cc(C(=O)Nc2ccccc2-c2cc(F)c(F)c(F)c2)c(C(F)F)n1 (20 µM) for me?
0.989

Query (compound): CC(=O)Nc1nnc(S(N)(=O)=O)s1 [Acetazolamide] (20 µM) ; field requested: fold change of Cadaverine concentration
1.11

I would be grateful if you could share the reported fold change of Cadaverine concentration for CN(C)CCN(Cc1ccccc1)c1ccccn1 [Tripelennamine hydrochloride] (20 µM) .
1

Record request: fold change of Cadaverine concentration value, item COc1cc(N)c(Cl)cc1C(=O)NC1CCN(CCCOc2ccc(F)cc2)CC1OC (stereo unspecified) [Cisapride] (20 µM)
0.993

Which measured fold change of Cadaverine concentration value corresponds to C[C@@H]1CN(c2c(F)c(N)c3c(=O)c(C(=O)O)cn(C4CC4)c3c2F)C[C@H](C)N1 [Sparfloxacin] (20 µM) ?
0.973

Param item = Cc1cc(C(C)(C)C)c(O)c(C)c1CC1=NCCN1 [Oxymetazoline hydrochloride] (20 µM) ; retrieve measured fold change of Cadaverine concentration.
1.01

Consider the compound shown here: NCc1ccc(S(N)(=O)=O)cc1 [Mafenide hydrochloride] (20 µM) What is its recorded fold change of Cadaverine concentration?
0.987

Requested field: fold change of Cadaverine concentration. Item: CC(=O)Oc1cc(C(F)(F)F)ccc1C(=O)O [Triflusal] (20 µM)
0.992

Report fold change of Cadaverine concentration for O=C(O)CCNC(=O)c1ccc(/N=N/c2ccc(O)c(C(=O)O)c2)cc1 [Balsalazide disodium salt] (20 µM) please.
1.11

So what does the record say about fold change of Cadaverine concentration for COc1ccc(CN2CCN(C(c3ccc(F)cc3)c3ccc(F)cc3)CC2)c(OC)c1OC [Lomerizine dihydrochloride] (20 µM) ?
1.01

Which measured fold change of Cadaverine concentration value corresponds to CC(C(=O)O)c1ccc2c(c1)[nH]c1ccc(Cl)cc12 (stereo unspecified) [Carprofen] (20 µM) ?
0.995

Endpoint output: fold change of Cadaverine concentration of O=c1n(CCCN2CCN(c3cccc(Cl)c3)CC2)nc2ccccn12 [Trazodone hydrochloride] (20 µM) . Value?
0.99

# get_value(readout='fold change of Cadaverine concentration', item= CC1=C(C(=O)O)N2C(=O)[C@@H](NC(=O)[C@H](N)c3ccccc3)[C@H]2SC1 [Cephalexin monohydrate] (20 µM) )
1.01
